biological target: T1, MBP-RAMP1 ECD-(GS)5-CLR ECD-H6 fusion protein (human, UniProt O60894 24-111; Q16602 29-144); test: FP competition vs FITC-AM W/W probe, purified ECD fusion
T1 construct: range 24-111;range 29-144; Tethered ECD fusion made in E. coli; used in the FP assay at 15 nM; also called MBP-hRAMP1.24-111-(Gly-Ser)5-hCLR.29-144-H6
T1 sequence (O60894 other isoform, or with tags, fused parts or gaps limits assumed, form in doubt): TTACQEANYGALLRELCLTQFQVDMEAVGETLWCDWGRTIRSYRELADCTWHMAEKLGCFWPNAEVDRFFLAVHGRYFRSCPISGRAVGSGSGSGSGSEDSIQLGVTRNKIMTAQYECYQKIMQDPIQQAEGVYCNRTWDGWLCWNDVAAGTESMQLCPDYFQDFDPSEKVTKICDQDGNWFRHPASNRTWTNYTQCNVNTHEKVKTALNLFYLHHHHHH
pKi: −log10 of the molar value. Where no end group is shown, it is not given here.
Assign YES whenever pKi does not fall below 8; assign NO whenever it does.

INSERT INTO results (binder, answer_label) VALUES
  ('DKDNVAPRSKISPFGY-NH2 [AM(37-52)NH2 [Q50F]]', 'NO'),
  ('FVPTDTGPWGY-NH2 [CGRP(27-37)NH2 [N31D, V32T, S34P, K35W, A36G, F37Y]]', 'NO'),
  ('DKDNVAPRWLMSPWGF-NH2 [AM(37-52)NH2 [S45W, K46L, I47M, Q50W, Y52F]]', 'YES'),
  ('FVPTDVGPWSF-NH2 [CGRP(27-37)NH2 [N31D, S34P, K35W, A36S]]', 'YES'),
  ('DKDNVAPRWLISPWGF-NH2 [AM(37-52)NH2 [S45W, K46L, Q50W, Y52F]]', 'YES'),
  ('FVPTDVGPWSY-NH2 [CGRP(27-37)NH2 [N31D, S34P, K35W, A36S, F37Y]]', 'YES'),
  ('DKFNVAPRSLISPWGY-NH2 [AM(37-52)NH2 [D39F, K46L, Q50W]]', 'NO'),
  ('DKDNVAPRTWISPWGY-NH2 [AM(37-52)NH2[S45T, K46W, Q50W]]', 'NO'),
  ('DKDNVAPRTLISPWGY-NH2 [AM(37-52)NH2[S45T, K46L, Q50W]]', 'NO'),
  ('DKDNVAPRSKISPWGY-NH2 [AM(37-52)NH2 [Q50W]]', 'NO'),
  ('DKDNVAPRSLISPWGF-NH2 [AM(37-52)NH2 [K46L, Q50W, Y52F]]', 'NO'),
  ('DKDNVAPRWWISPWGF-NH2 [AM(37-52)NH2 [S45W, K46W, Q50W, Y52F]]', 'NO'),
  ('FVPTDTGPWSF-NH2 [CGRP(27-37)NH2 [N31D, V32T, S34P, K35W, A36S]]', 'YES'),
  ('FVPTDVGPFSF-NH2 [CGRP(27-37)NH2 [N31D, S34P, K35F, A36S]]', 'YES'),
  ('DKFNVAPRSLISPWGF-NH2 [AM(37-52)NH2 [D39F, K46L, Q50W, Y52F]]', 'NO'),
  ('DKDNVAPRSLISPWGY-NH2 [AM(37-52)NH2 [K46L, Q50W]]', 'NO'),
  ('DKDNVAPRWKISPWGY-NH2 (also called S45W/Q50W double mutant) [AM(37-52)NH2 [S45W, Q50W]]', 'NO');

All values here come from patent US20180141989A1.
